Reported MATE2K ratio in this study values are given for each entry in this list.
# subjectOfTest: MATE2K (Homo sapiens)
# assayMethodText: Uptake ratio in MATE2K-overexpressing HEK293 cells vs empty vector (2.5 μM, 1 min, HPLC-MS/MS)
# Format: cell-based
# protocolConditions: Table S1; 2.5 μM, 1 min
Please reply with the number alone, leaving off any unit.

- compound: "CC[C@@H](CO)NCCN[C@@H](CC)CO"
  propertyMeasured: "MATE2K ratio in this study"
  measurement: 2.78
- compound: "CC(C)NC(=N)NC(=N)Nc1ccc(Cl)cc1"
  propertyMeasured: "MATE2K ratio in this study"
  measurement: 3.98
- compound: "Nc1nc(=O)n([C@@H]2CS[C@H](CO)O2)cc1F"
  propertyMeasured: "MATE2K ratio in this study"
  measurement: 2.88
- compound: "CC(C)(C)NCC(O)c1ccc(O)c(CO)c1 (centres unmarked) [Salbutamol]"
  propertyMeasured: "MATE2K ratio in this study"
  measurement: 3.73
- compound: "CC(C)(C)NCC(O)COc1cccc2c1CC(O)C(O)C2 (centres unmarked)"
  propertyMeasured: "MATE2K ratio in this study"
  measurement: 10.12
- compound: "c1cnc2cc3c(cc2n1)[C@@H]1CNC[C@H]3C1"
  propertyMeasured: "MATE2K ratio in this study"
  measurement: 1.30

Could you share which MATE2K ratio in this study value was measured for "C[C@H]1N=C(N(C)C)N=C(N)N1" ?
4.59

###

Reported MATE2 (uptake ratio) values are given for each entry in this list.
# subjectOfTest: UniProtKB Q86VL8
# assayMethodText: Uptake ratio in MATE2K-overexpressing HEK293 cells vs empty vector (2.5 μM, 1 min, HPLC-MS/MS)
# Assay type: cell-based
Please reply with the number alone, leaving off any unit.

- compound: "CC(=O)OC1CN2CCC1CC2 (stereo not shown)"
  MATE2 (uptake ratio): 1.08

Note: attention shifts to another entry.
What measured MATE2 (uptake ratio) is associated with "NCCc1ccc(Oc2ccc(O)cc2)c(I)c1" on UniProtKB Q86VL8?
1.07

###

# subjectOfTest: MATE2K (Homo sapiens, UniProt Q86VL8)
# Sequence (Q86VL8 1-566 isoform Q86VL8-3): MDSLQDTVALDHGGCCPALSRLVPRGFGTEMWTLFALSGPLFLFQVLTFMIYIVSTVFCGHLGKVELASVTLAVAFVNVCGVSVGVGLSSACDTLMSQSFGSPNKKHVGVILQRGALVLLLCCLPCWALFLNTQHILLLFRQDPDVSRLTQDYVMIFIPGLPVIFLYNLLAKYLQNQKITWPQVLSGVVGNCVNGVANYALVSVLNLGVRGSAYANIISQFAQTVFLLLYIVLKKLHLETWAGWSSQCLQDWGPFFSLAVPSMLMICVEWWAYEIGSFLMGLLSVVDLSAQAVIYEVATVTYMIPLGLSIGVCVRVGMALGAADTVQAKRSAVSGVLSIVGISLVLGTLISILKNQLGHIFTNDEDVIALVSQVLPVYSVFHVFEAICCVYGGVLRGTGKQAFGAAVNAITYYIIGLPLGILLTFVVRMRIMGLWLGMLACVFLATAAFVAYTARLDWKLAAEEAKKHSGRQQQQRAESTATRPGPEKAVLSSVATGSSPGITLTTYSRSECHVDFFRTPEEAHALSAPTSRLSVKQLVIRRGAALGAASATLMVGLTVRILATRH
# assayMethodText: Uptake ratio in MATE2K-overexpressing HEK293 cells vs empty vector (2.5 μM, 1 min, HPLC-MS/MS)
# Type: cell-based
propertyMeasured: MATE2
Please reply with the number alone, leaving off any unit.

In the examples that follow, each entry is paired with its recorded MATE2.
- compound: "CCOc1ccccc1OCC1CNCCO1 (stereo not shown)"
  MATE2: 1.38
- compound: "COc1ccc([C@H](CN(C)C)C2(O)CCCCC2)cc1 [Venlafaxine (R)]"
  MATE2: 1.36
- compound: "O=C(O[C@H]1C[C@H]2CC[C@@H](C1)[N+]21CCCC1)C(O)(c1ccccc1)c1ccccc1"
  MATE2: 5.18
- compound: "CCN1CCC[C@H]1CNC(=O)c1cc(S(N)(=O)=O)ccc1OC [Sulpiride (S)]"
  MATE2: 18.54
- compound: "C[N+]1(C)[C@@H]2C[C@@H](OC(=O)C(O)(c3cccs3)c3cccs3)C[C@H]1[C@@H]1O[C@@H]12"
  MATE2: 1.94
- compound: "CC[N+](CC)(CC)CC"
  MATE2: 6.73
- compound: "NCCc1c[nH]c2ccc(O)cc12"
  MATE2: 2.26
- compound: "CC(CCc1ccc(O)cc1)NCC(O)c1ccc(O)cc1 (stereo not shown)"
  MATE2: 1.4

Could you share which MATE2 value was measured for N[C@@H]1C[C@H]1c1ccccc1 (racemic) ?
1.98

Could you share which MATE2 value was measured for Cc1ccc(O)c([C@H](CCN(C(C)C)C(C)C)c2ccccc2)c1 [Tolterodine (R)] ?
1.06

Could you share which MATE2 value was measured for "N[C@@H](Cc1c[nH]c2ccccc12)C(=O)O" ?
1.07

// provenance: paper PMC12207590
